# assayed-target: M17 leucyl aminopeptidase (Plasmodium falciparum (isolate 3D7))
# test: P. falciparum M17LAP inhibitors, primary screen, biochemical, fluorogenic H-Leu-NHMec substrate, 1536-well (AID 1619)
Threshold check on IC50: strictly below 50 µM is T; on or above 50 µM is F.

Take a look at these entries with their results.
- Cc1[nH][nH]c(=O)c1CCC(=O)NN=Cc1cccc(Cl)c1: T
- N#Cc1c(NC=C2C(=O)NC(=S)NC2=O)sc2c1CCCC2: F
- Cc1[nH][nH]c(=O)c1CCC(=O)NN=Cc1ccccc1[N+](=O)[O-]: T
- CCOc1cc(C2c3c(-c4ccccc4)n[nH]c3OC(=N)C2C#N)ccc1O (stereo not given): F
- COc1ccc(CN=Nc2nc(O)c(CC(=O)O)s2)cc1OCc1ccc(Cl)cc1: T

Asked: For O=NCc1ccc(OCc2ccccc2)c(C(=O)O)c1 , is the recorded IC50 below the cut-off of 50 µM?
Given back: T

Asked: IC50 under 50 µM? Item: Cc1nc2c([nH]1)C1(CCN(Cc3ccccc3)CC1)C(C#N)C(=N)O2 (stereo not given)
Given back: F

Asked: Here's an entry: O=C1N=c2ccccc2=C1NNc1ccc(C(=O)O)cc1 . Is its IC50 below 50 µM?
Given back: F

Asked: Determine if Cc1noc(NS(=O)(=O)c2ccc(N=CCC(=O)c3ccc4c(c3)OCO4)cc2)c1C shows IC50 strictly lower than 50 µM.
Given back: T

* * *

Listed compounds paired with reported log10 IC50
# assayed-target: M17 leucyl aminopeptidase (Plasmodium falciparum (isolate 3D7))
# test: P. falciparum M17LAP inhibitors, primary screen, biochemical, fluorogenic H-Leu-NHMec substrate, 1536-well (AID 1619)
# log10 transformed; quantity=IC50; unit=µM

Please review the following examples before continuing.
- CC(=O)N1CCC2(CC1)c1c(CSc3ccc(C)cc3)n[nH]c1OC(=N)C2C#N (stereo not given) [SMR000036525]: 1.32
- CC(=NNC(=O)Cc1c(C)[nH][nH]c1=O)c1cccs1 [SMR000305285]: 0.55

Asked: What does the record list as log10 IC50 for CCOc1ccccc1C1c2c(-c3ccccc3)noc2N=C(N)C1C#N (stereo not given) ?
Given back: 1.72

Asked: Returns the measured log10 IC50 for the input compound. Input: Cc1[nH][nH]c(=O)c1CCC(=O)NN=Cc1ccc(Cl)cc1
Given back: 1.72

Asked: For COc1cc(CN=Nc2ccc(Cl)c(C(=O)O)c2)ccc1OC(=O)c1cccs1 , what is its reported log10 IC50?
Given back: 1.74

* * *

# assayed-target: M17 leucyl aminopeptidase (Plasmodium falciparum (isolate 3D7))
# test: P. falciparum M17LAP inhibitors, primary screen, biochemical, fluorogenic H-Leu-NHMec substrate, 1536-well (AID 1619)
parameter-measured: IC50 (µM)
Please reply with the bare figure in µM and do not write the unit itself.

Please review the entries below; each comes with its answer.
• N#CC1C(=N)Oc2[nH]nc(-c3ccc(F)cc3)c2C1c1ccncc1 (stereo not drawn) = 94.3
• COc1cccc(C=NNC(=O)Cc2c(C)[nH][nH]c2=O)c1O = 92.1
• Cc1ccc(-c2n[nH]c3c2C(C)C(C#N)C(=N)O3)cc1 (stereo not drawn) = 16.3
• CN(C)c1ccc(/N=N/c2ccccc2C(=O)OCC(=O)N(C)C2CCCCC2)cc1 = 15.2
• O=C(O)[C@H]1O[C@@H](Oc2c(-c3ccc(O)c(O)c3)oc3cc(O)cc(=O)c-3c2O)[C@H](O)[C@@H](O)[C@@H]1O [quercetin glucuronide] = 48.2

Asked: Quick check: IC50 on M17 leucyl aminopeptidase (Plasmodium falciparum (isolate 3D7)), item CC(=NNC(=O)CCc1c(C)[nH][nH]c1=O)c1ccccc1 ?
Given back: 36.6

Asked: Field: IC50 (M17 leucyl aminopeptidase (Plasmodium falciparum (isolate 3D7))). Entry: Cc1cc(C=C2C(=O)NC(=O)N(c3ccc(F)cc3)C2=O)c(C)n1-c1ccc(C(=O)O)cc1 [SMR000273525]
Given back: 149

Asked: Enter reported IC50 observed with M17 leucyl aminopeptidase (Plasmodium falciparum (isolate 3D7)) for CC(=NNC(=O)Cc1c(C)[nH][nH]c1=O)c1ccco1 [MLS000723689]
Given back: 12.3

Asked: Query for M17 leucyl aminopeptidase (Plasmodium falciparum (isolate 3D7)): what IC50 does the record show for CCOC(=O)C1C(=O)C(=Cc2ccc(OCC(=O)O)c(OCC)c2)SC1=Nc1ccc(C)cc1 (stereo not drawn) ?
Given back: 15.6

Asked: Which measured IC50 belongs to N#CC1C(=N)Oc2nc(-c3ccccc3)[nH]c2C1c1cccnc1 (stereo not drawn) , tested on M17 leucyl aminopeptidase (Plasmodium falciparum (isolate 3D7))?
Given back: 66.6

Asked: Recorded IC50 for O=C1C=C/C(=C/NN2C(=O)C3C4C=CC(CC4)C3C2=O)C=C1O (stereo not drawn) [SMR000207592] with M17 leucyl aminopeptidase (Plasmodium falciparum (isolate 3D7)), please?
Given back: 34.3

Asked: Could you share what IC50 was measured for CC(C=NNC(=O)Cc1c(C)[nH][nH]c1=O)=Cc1ccccc1 , tested on M17 leucyl aminopeptidase (Plasmodium falciparum (isolate 3D7))?
Given back: 52.8

Asked: Report IC50 for CC(C)(C)c1ccc(CN=Nc2ccc(C(=O)O)cc2)cc1 tested on M17 leucyl aminopeptidase (Plasmodium falciparum (isolate 3D7)).
Given back: 13.3

Asked: Identify the measured IC50 of CC(CCC1CC(C)OC1=O)N=Nc1nc(-c2ccccc2)cs1 (stereo not drawn) [SMR000204131] for M17 leucyl aminopeptidase (Plasmodium falciparum (isolate 3D7)).
Given back: 30.8

* * *

# assayed-target: M17 leucyl aminopeptidase (Plasmodium falciparum (isolate 3D7))
# Sequence (Q8IL11 whole entry): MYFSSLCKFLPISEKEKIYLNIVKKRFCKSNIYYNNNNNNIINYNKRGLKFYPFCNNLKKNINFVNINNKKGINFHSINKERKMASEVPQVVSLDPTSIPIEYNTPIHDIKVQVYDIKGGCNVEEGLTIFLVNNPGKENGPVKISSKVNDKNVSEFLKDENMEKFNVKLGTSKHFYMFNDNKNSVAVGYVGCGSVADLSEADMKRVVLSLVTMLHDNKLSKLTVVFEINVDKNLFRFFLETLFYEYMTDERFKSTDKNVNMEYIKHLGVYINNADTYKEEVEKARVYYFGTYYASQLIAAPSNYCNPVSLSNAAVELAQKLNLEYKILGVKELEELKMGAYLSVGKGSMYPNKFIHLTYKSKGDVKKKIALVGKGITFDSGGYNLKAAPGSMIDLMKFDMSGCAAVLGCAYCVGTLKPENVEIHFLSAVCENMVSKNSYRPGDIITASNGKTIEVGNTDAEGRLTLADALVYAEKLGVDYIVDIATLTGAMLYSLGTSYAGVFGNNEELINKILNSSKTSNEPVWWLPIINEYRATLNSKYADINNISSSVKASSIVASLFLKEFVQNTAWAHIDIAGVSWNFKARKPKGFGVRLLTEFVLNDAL
# test: P. falciparum M17LAP inhibitors, primary screen, biochemical, fluorogenic H-Leu-NHMec substrate, 1536-well (AID 1619)
parameter-measured: pIC50
Keep in mind that pIC50 stands for -log10 of concentration in molar terms.

Below: 3 compounds and their reported pIC50.
* Cc1ccc(SCc2n[nH]c3c2C2(CCSCC2)C(C#N)C(=N)O3)cc1 (stereo not given) | 4.04
* CCCOc1ccc(-n2c(O)cc(SCCN)c2O)cc1 | 4.92
* Cc1[nH][nH]c(=O)c1CCC(=O)NN=CC(Br)=Cc1ccccc1 | 5.10

Asked: Need pIC50 of O=C1CCCC2=Nc3[nH]c(=S)[nH]c(=O)c3C(c3ccc(Br)cc3)C12 (stereo not given) , thanks.
Given back: 4.78

Asked: Give its pIC50 value. Item: O=C1c2ccccc2C(=O)C1C1=NC(C(=O)O)c2c1c(O)n(-c1ccccc1)c2O (stereo not given) [SMR000168620]
Given back: 4.17

* * *

# assayed-target: M17 leucyl aminopeptidase (Plasmodium falciparum (isolate 3D7), UniProt Q8IL11)
# test: P. falciparum M17LAP inhibitors, primary screen, biochemical, fluorogenic H-Leu-NHMec substrate, 1536-well (AID 1619)
Catalogue of pIC50 values
Conceptually, pIC50 converts a concentration in mol/L into minus its log10.

Completed entries (count: 4):
• Cc1ccc(-c2n[nH]c3c2C(c2ccoc2)C(C#N)C(=N)O3)cc1C (centres undefined) = 5.44
• CCc1nnc(NS(=O)(=O)c2ccc(N=CCC(=O)c3cccc4ccccc34)cc2)s1 = 5.00
• Cc1ccc(CN=Nc2ccc(C(=O)O)cc2)s1 = 4.69
• COc1ccc(CN=Nc2ccc(C(=O)O)cc2)cc1Br = 4.63

Below: the item to evaluate.
Asked: Can you look up pIC50 on M17 leucyl aminopeptidase (Plasmodium falciparum (isolate 3D7), UniProt Q8IL11) for O=NCc1cn(CC(=O)N2CCOCC2)c2ccccc12 ?
Given back: 4.10
